Ref: PubChem BioAssay (NCI)

Can you tell me GI50 for the items I'm about to list?
Tested on: T-47D breast
Run Description: NCI tumour cell line growth inhibition, 48 h

[
  {
    "Mol Smiles": "NC1=Nc2cc(OCCCCN3Cc4ccccc4C3)c(OCC3CC3)cc2C12CCCC2",
    "GI50": "1780 nM"
  }
]

Please give GI50, item by item, for the list that follows.
1. Cc1n[nH]c(C)c1-c1c(C)n[nH]c1C
2. COc1ccc(-c2cc(-c3ccc(Cl)cc3)c(C#N)c(=O)n2CCCCCC(=O)Nc2ccccc2N)cc1
3. CC[C@@]12CC(C(=O)OC)=C3Nc4ccccc4[C@@]34CCN(C[C@H]3O[C@H]31)[C@@H]24

1. 1910 nM
2. 3330 nM
3. 27500 nM

Please give GI50, item by item, for the list that follows.
1. N=C(N)c1ccc(-c2ccc(-c3cccs3)s2)cc1F
2. Cc1ccc(CNc2ccc(Cl)cc2NCc2ccc(C)c(O)c2)cc1O
3. O=c1c2cc(F)ccc2sc2c(NCCCNCCO)nc3ccc(F)cc3c12

1: 1490 nM; 2: 7400 nM; 3: 1940 nM
